Target: E6 WT/E6AP (Human papillomavirus type 16)
Assay: biochemical
Format: binding
Settings: 100 μM compound, WT 16E6
So I've got a bunch of compounds here, and I need their inhibition at 100 µM values.
All answers are understood in %, so give the number only.

# lookup: inhibition at 100 µM of C=CC(=O)N1CCCN(C(=O)CN2CCc3sccc3C2c2ccccc2C)CC1 (stereo not drawn) [EIN-122]
97

Can you handle C=CC(=O)N1CCN(c2nc(CCc3ccccc3F)nc3sc4c(c23)CCCC4)CC1 [EIN-138] next?
57

Now this one: Cc1ccccc1C1c2ccsc2CCN1C(C)C(=O)N1CCCN(C(=O)CCl)CC1 (stereo not drawn) [EIN-117]
33

Input C=CC(=O)N1CCN(c2nc(N(C)Cc3cccc(F)c3)nc3sc4c(c23)CCCC4)CC1 [EIN-141]
18

Next compound: O=C(CCl)N1CCCN(C(=O)CN2CCc3sccc3C2c2cccc(F)c2)CC1 (stereo not drawn) [EIN-119]
61

Proceed to CCCc1nc(N2CCN(C(=O)CCl)CC2)c2c3c(sc2n1)CC(C)CC3 (stereo not drawn) [EIN-130]
100

Now this one: Cc1sc2nc(C3CC3)nc(N3CCN(C(=O)CCl)CC3)c2c1C [EIN-129]
119

Repeat for the following compound: C=CC(=O)N1CCN(c2nc(NCc3ccccc3)nc3sc4c(c23)CCCC4)CC1 [EIN-134]
35

Then what about the compound C=CC(=O)N1CCN(c2nc(CCc3ccc(OC)cc3)nc3sc4c(c23)CCCC4)CC1 [EIN-144] ?
45

----------
Molecular target: E6 WT/E6AP (Human papillomavirus type 16, UniProt P03126)
Sequence (P03126 8-158): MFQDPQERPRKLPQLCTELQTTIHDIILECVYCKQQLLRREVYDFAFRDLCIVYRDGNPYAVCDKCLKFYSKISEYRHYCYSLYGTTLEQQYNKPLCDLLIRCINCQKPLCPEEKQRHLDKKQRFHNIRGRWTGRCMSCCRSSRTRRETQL
Assay: biochemical
Type: binding
Details: at 24 h; E6 WT; read-out: BLI maximal Inhibition (max %) E6 WT/E6AP
Could you please report measured Emax for the items listed next?
Give the value, in units of %, as a plain number.

// Emax lookup, key: C=CC(=O)N1CCN(c2nc(-c3ccccc3)nc3sc4c(c23)CCCC4)CC1
60

Follow-up entry: C=CC(=O)N1CCN(c2nc(CCc3ccc(F)cc3)nc3sc4c(c23)CCCC4)CC1
100

Would you mind doing C=CC(=O)N1CCN(c2nc(CCc3cccc(OC)c3)nc3sccc23)CC1 as well?
100

Try this compound too: C=CC(=O)N1CCN(c2nc(CCc3cccc(OC)c3)nc3ccccc23)CC1
100

And what about the compound C=CC(=O)N1CCN(c2nc(-c3ccccc3)nc3ccccc23)CC1 ?
100

----------
Biological target: E6C51S/E6AP (Human papillomavirus type 16, UniProt P03126, C58S)
Sequence (P03126 whole entry C58S, looked up): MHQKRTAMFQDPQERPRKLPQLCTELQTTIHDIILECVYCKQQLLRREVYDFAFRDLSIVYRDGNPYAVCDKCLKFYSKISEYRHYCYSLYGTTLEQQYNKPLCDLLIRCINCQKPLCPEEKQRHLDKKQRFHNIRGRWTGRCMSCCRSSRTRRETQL
Test: E6/E6AP binding assay (amylose-bound MBP-16E6, E6AP-BAP activity), C51S 16E6
Design: species or system HPV-16
Details: 100 μM compound
What % Inhibition @ 100 μM E6C51S/E6AP was measured for each of the following?
Reply with just the number (in %).

Lookup: % Inhibition @ 100 μM E6C51S/E6AP / E6C51S/E6AP (Human papillomavirus type 16, UniProt P03126, C58S) / CCCc1nc(N2CCN(C(=O)CCl)CC2)c2c3c(sc2n1)CC(C)CC3 (stereo not drawn) [EIN-130]
85

Same lookup for Cc1nc(N2CCN(C(=O)CCl)CC2)c2c3c(sc2n1)CCCC3 [EIN-123] , please.
90

Same lookup for Cc1ccccc1C1c2ccsc2CCN1CC(=O)N1CCN(C(=O)CCl)C(C)C1 (stereo not drawn) [EIN-118] , please.
79

Okay, and C=CC(=O)N1CCN(c2nc(Cc3ccccc3)nc3sc4c(c23)CCCC4)CC1 [EIN-135] ?
25

Likewise for CCCCc1nc(N2CCN(C(=O)CCl)CC2)c2c3c(sc2n1)CC(C)CC3 (stereo not drawn) [EIN-124] ?
90

Entry to check: CCCCc1nc(N2CCN(C(=O)CCl)CC2)c2c3c(sc2n1)CCCC3 [EIN-126]
34

Also check C=CC(=O)N1CCN(c2nc(Cc3ccc(F)cc3)nc3sc4c(c23)CCCC4)CC1 [EIN-146]
15

Then what about the compound C=CC(=O)N1CCN(c2nc(NCc3ccccc3)nc3sc4c(c23)CCCC4)CC1 [EIN-134] ?
0

And the next one, C=CC(=O)N1CCN(c2nc(CCc3cccc(OC)c3)nc3sc4c(c23)CCCC4)CC1 [EIN-143] ?
23

Then what about the compound Cc1sc2nc(CCc3ccccc3)nc(N3CCN(C(=O)CCl)CC3)c2c1C [EIN-128] ?
60

One more compound: C=CC(=O)N1CCN(c2nc(-c3ccccc3)nc3sc4c(c23)CCCC4)CC1 [EIN-133]
0

Next record, please: C=CC(=O)N1CCN(c2nc(CCc3ccccc3OC)nc3sc4c(c23)CCCC4)CC1 [EIN-145]
23

Queued: C=CC(=O)N1CCN(c2nc(CCc3ccccc3F)nc3sc4c(c23)CCCC4)CC1 [EIN-138]
19

Can you handle CC1CN(C(=O)CN2CCc3sccc3C2c2cccc(F)c2)CCN1C(=O)CCl (stereo not drawn) [EIN-120] next?
34

Would you kindly repeat that for C=CC(=O)N1CCN(c2nc(N(C)Cc3ccc(F)cc3)nc3sc4c(c23)CCCC4)CC1 [EIN-142] ?
0

Lookup C=CC(=O)N1CCN(c2nc(N(C)Cc3ccccc3)nc3sc4c(c23)CCCC4)CC1 [EIN-139]
6

Same question for C=CC(=O)N1CCN(c2nc(N(C)Cc3ccccc3F)nc3sc4c(c23)CCCC4)CC1 [EIN-140] please.
0

Ok, now C=CC(=O)N1CCN(c2nc(CCc3ccc(OC)cc3)nc3sc4c(c23)CCCC4)CC1 [EIN-144]
17
